- tested on: T1, AFP158/HLA-A*02:01 complex (human)
- T1 construct: flowed as analyte in SPR
- test protocol: SPR, crude scFv captured, pMHC analyte;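 further: complex injected at several concentrations over the chip, association phase then running buffer for dissociation, KD derived from on- and off-rates computed from both curves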
measurement kind: kon (M⁻¹ s⁻¹)

binder: AS170036 VL1VH1-56N98F108S (scFv, also called 51-AS170036 VL1VH1-56N98F108S) scFv: QSALTQPRSVSGSPGQSVTISCAGTSSDVGSENYVSWYQQHPGKAPKLMIYQVNKRASGVPDRFSGSKSGNTASLTISGLQAEDEADYYCASYRSSDFNIVFGGGTKLTVLGGGGSGGGGSGGGGSEVQLVESGGGLVQPGGSLRLSCAASGFTFSSYAMSWVRQAPGKGLEWVSTINSGTNSPYYADSVKGRFTISRDNSKNTLYLQMNSLRAEDTAVYYCAKNFFDGSWFLSPPAMDYWGQGTLVTVSSHHHHHH
measured number: 210000
//
binder: AS170036 VL1VH1-57K98I108D (scFv, also called 71-AS170036 VL1VH1-57K98I108D) scFv: QSALTQPRSVSGSPGQSVTISCAGTSSDVGSENYVSWYQQHPGKAPKLMIYQVNKRASGVPDRFSGSKSGNTASLTISGLQAEDEADYYCASYRSSDINIVFGGGTKLTVLGGGGSGGGGSGGGGSEVQLVESGGGLVQPGGSLRLSCAASGFTFSSYAMSWVRQAPGKGLEWVSTINSGTGKPYYADSVKGRFTISRDNSKNTLYLQMNSLRAEDTAVYYCAKNFFDGSWFLDPPAMDYWGQGTLVTVSSHHHHHH
measured number: 210000
//
binder: AS170036 VL1VH1-57H98I108S (scFv, also called 63-AS170036 VL1VH1-57H98I108S) scFv: QSALTQPRSVSGSPGQSVTISCAGTSSDVGSENYVSWYQQHPGKAPKLMIYQVNKRASGVPDRFSGSKSGNTASLTISGLQAEDEADYYCASYRSSDINIVFGGGTKLTVLGGGGSGGGGSGGGGSEVQLVESGGGLVQPGGSLRLSCAASGFTFSSYAMSWVRQAPGKGLEWVSTINSGTGHPYYADSVKGRFTISRDNSKNTLYLQMNSLRAEDTAVYYCAKNFFDGSWFLSPPAMDYWGQGTLVTVSSHHHHHH
measured number: 160000
